- Tested on: SNB-75 CNS
- protocol_notes: NCI tumour cell line growth inhibition, 48 h
Documented TGI across a set of compounds
Expressed in µM, but write only the number.

compound O=C(CCCc1c[nH]c2ccccc12)NC1CC(=O)c2c(Br)sc(Br)c21 (stereo not given) , TGI observed: 27.7

Form: compound = O/N=c1/ccn(O)c2ccccc12 ; TGI = 1.98

Recorded result, Cc1cc(C)nc(NS(=O)(=O)c2ccc(Nc3c4ccccc4nc4c(C(=O)Nc5ccc(S(N)(=O)=O)cc5)cccc34)cc2)n1 , TGI: 88.4

Lookup result for C/C(=N\NC(=S)Nc1ccc(C(=O)O)cc1)c1ccccn1 ; measured TGI: 40
